- TARGET_OR_SYSTEM: HIV-1-Protease (Human immunodeficiency virus type 1 group M subtype B, UniProt P04585)
- Construct: Gereinigte HIV-Protease wurde mit synthetischem Peptid
- TEST_METHOD_NOTES: HIV-specific protease enzyme test (purified HIV protease, synthetic peptide substrate, RP-HPLC analysis of cleavage products)
- Type: biochemical
- STUDY_CONDITIONS: purified HIV protease, synthetic peptide imitating a Gag precursor cleavage site

| COMPOUND | HIV-1-Protease-Inhibition IC95 |
| --- | --- |
| O=C(N[C@@H](Cc1ccccc1)[C@H](O)CN1[C@H](C(F)(F)F)C[C@@H]2CCC[C@@H]21)OC1C=CS(=O)(=O)C1 (stereo partly drawn) | 4,1 x 10^-8 Mol/l |
| O=C(N[C@@H](Cc1ccccc1)[C@H](O)CN1[C@H](C(F)(F)F)C[C@@H]2CCC[C@@H]21)OC1CCOC1 (stereo partly drawn) | 4,7 x 10^-8 Mol/l |
| NC(=O)C[C@H](NC(=O)O[C@H]1CCOC1)C(=O)N[C@@H](Cc1ccccc1)[C@H](O)CN1[C@H](C(F)(F)F)C[C@@H]2CCC[C@@H]21 | 3,6 x 10^-9 Mol/l |
| O=C(N[C@@H](Cc1ccccc1)[C@H](O)CN1[C@H](C(F)(F)F)C[C@@H]2CCC[C@@H]21)O[C@H]1CCOC1 | 5,0 x 10^-8 Mol/l |
| NC(=O)C[C@H](NC(=O)OC1CCOC1)C(=O)N[C@@H](Cc1ccccc1)[C@H](O)CN1[C@H](C(F)(F)F)C[C@@H]2CCC[C@@H]21 (stereo partly drawn) | 3,8 x 10^-7 Mol/l |
| NC(=O)C[C@H](NC(=O)OC1C=CS(=O)(=O)C1)C(=O)N[C@@H](Cc1ccccc1)[C@H](O)CN1[C@H](C(F)(F)F)C[C@@H]2CCC[C@@H]21 (stereo partly drawn) | 3,9 x 10^-9 Mol/l |

###

- Test system: HIV
- TEST_METHOD_NOTES: HIV infection in cell culture (PBL), microscopic evaluation of syncytia formation
- Format: cell-based
- STUDY_CONDITIONS: HIV-infected normal human blood lymphocytes (PBL's); suppression of virus-induced syncytia, day 3 to 6 after infection
ENDPOINT_LABEL: PBL IC95

| MOLECULE | ENDPOINT_LABEL | MEAS_VALUE |
| --- | --- | --- |
| O=C(N[C@@H](Cc1ccccc1)[C@H](O)CN1[C@H](C(F)(F)F)C[C@@H]2CCC[C@@H]21)OC1CCOC1 (stereo partly drawn) [Beispiel 5] | PBL IC95 | 2,2 x 10^-5 Mol/l |
| O=C(N[C@@H](Cc1ccccc1)[C@H](O)CN1[C@H](C(F)(F)F)C[C@@H]2CCC[C@@H]21)OC1C=CS(=O)(=O)C1 (stereo partly drawn) [Beispiel 8] | PBL IC95 | >2e-05 mol/L |
| NC(=O)C[C@H](NC(=O)OC1CCOC1)C(=O)N[C@@H](Cc1ccccc1)[C@H](O)CN1[C@H](C(F)(F)F)C[C@@H]2CCC[C@@H]21 (stereo partly drawn) [Beispiel 1] | PBL IC95 | 3,5 x 10^-6 Mol/l |

###

- TARGET_OR_SYSTEM: HIV-1-Protease (Human immunodeficiency virus type 1 group M subtype B)
- Construct: Gereinigte HIV-Protease wurde mit synthetischem Peptid
- TEST_METHOD_NOTES: HIV-specific protease enzyme test (purified HIV protease, synthetic peptide substrate, RP-HPLC analysis of cleavage products)
- Format: biochemical
- Description: Es wurde überraschend gefunden, daß die Verbindungen der allgemeinen Formel (I) eine außerordentlich starke Wirkung gegen Retroviren besitzen. Dies wird mit einem HIV-spezifischen Protease-Enzymtest belegt. Die Ergebnisse der unten aufgeführten Beispiele wurden nach dem in der folgenden Literaturangabe [vgl. […]
ENDPOINT_LABEL: IC50 (nM)

| COMPOUND | UNIT_LABEL | MEAS_VALUE |
| --- | --- | --- |
| O=C(N[C@@H](Cc1ccccc1)[C@H](O)CN1[C@H](C(F)(F)F)C[C@@H]2CCC[C@@H]21)OC1CCOC1 (some centres unmarked) [Beispiel 5] | nM | 4.1 |
| NC(=O)C[C@H](NC(=O)OC1CCOC1)C(=O)N[C@@H](Cc1ccccc1)[C@H](O)CN1[C@H](C(F)(F)F)C[C@@H]2CCC[C@@H]21 (some centres unmarked) [Beispiel 1] | nM | 30 |
